Origin of measurements: ChEMBL document CHEMBL2331103

target: UniProt:P35610; assay: Inhibition of human macrophage ACAT expressed in human HepG2 cells using [14C]oleoyl-CoA as substrate incubated for 20 mins prior to substrate addition measured after 25 mins by liquid scintillation counting analysis
Sequence (P35610 whole entry): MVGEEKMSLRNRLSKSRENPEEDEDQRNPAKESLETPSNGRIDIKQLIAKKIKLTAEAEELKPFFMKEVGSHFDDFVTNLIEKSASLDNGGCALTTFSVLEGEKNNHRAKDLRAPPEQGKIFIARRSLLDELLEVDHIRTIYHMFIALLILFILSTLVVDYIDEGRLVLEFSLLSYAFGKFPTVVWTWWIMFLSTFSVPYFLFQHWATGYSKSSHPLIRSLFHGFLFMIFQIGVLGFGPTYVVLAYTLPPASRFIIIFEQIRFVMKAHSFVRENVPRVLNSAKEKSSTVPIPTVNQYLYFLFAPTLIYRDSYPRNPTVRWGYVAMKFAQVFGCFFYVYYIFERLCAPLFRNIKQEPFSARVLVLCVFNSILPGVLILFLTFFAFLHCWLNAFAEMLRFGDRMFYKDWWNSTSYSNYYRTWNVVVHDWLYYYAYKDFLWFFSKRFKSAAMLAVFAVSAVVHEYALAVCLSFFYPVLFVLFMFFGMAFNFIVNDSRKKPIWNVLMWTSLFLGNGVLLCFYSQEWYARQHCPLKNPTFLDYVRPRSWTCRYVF
pIC50: −log10 of the molar value.
PROPERTY MEASURED: pIC50

// below: answered compounds
[[record]]
compound = "CCCCCCCCCCCCSC1=CC(=O)c2ccccc2C1=O"
experimental_result = 5.78

[[record]]
compound = "CCCCCCCCCCCCCCCS(=O)(=O)C1=CC(=O)c2c(OC)ccc(OC)c2C1=O"
experimental_result = 5.24

[[record]]
compound = "CCCCCCCCCSC1=CC(=O)c2ccccc2C1=O"
experimental_result = 5.79

[[record]]
compound = "CCCCCCCCCCC[S+]([O-])C1=CC(=O)c2c(OC)ccc(OC)c2C1=O (stereo not given)"
experimental_result = 5.96

[[record]]
compound = "CSC1=CC(=O)c2ccccc2C1=O"
experimental_result = 5.55


1: CCCCCSC1=CC(=O)c2ccccc2C1=O
2: CCCCCCCCCCCS(=O)(=O)C1=CC(=O)c2c(OC)ccc(OC)c2C1=O
3: CCCCCCCCCCCCCCCCCCSC1=CC(=O)c2ccccc2C1=O
4: CCCCCCCCCCCCCCC[S+]([O-])C1=CC(=O)c2ccccc2C1=O (stereo not given)
*Q* Arrange items by their pIC50 values in increasing order. Form field (ranking): labels in requested order.
*A* 4, 1, 2, 3

A: CCCCCCCCC[S+]([O-])C1=CC(=O)c2ccccc2C1=O (stereo not given)
B: CCCCCCCCCCCC[S+]([O-])C1=CC(=O)c2c(OC)ccc(OC)c2C1=O (stereo not given)
C: CCCCCCCCCCCSC1=CC(=O)c2ccccc2C1=O
*Q* Arrange items by their pIC50 values in increasing order. Form field (ranking): labels in requested order.
*A* C, A, B
(C: 5.06, A: 5.26, B: 5.62)

I: CC(C)CNC(=O)/C=C/C=C/CCCC/C=C/c1ccc2c(c1)OCO2 [RETROFRACTAMIDE B]
II: CCCCSC1=CC(=O)c2ccccc2C1=O
*Q* Compare reported pIC50 values for I and II . Which is lower? Let me know the label of the one you choose.
*A* II
